Origin of measurements: PubChem BioAssay

Protocol description: decreased DLD-1 cellular survival, CellTiter-Glo luminescent readout, NPC compound collection, primary HTS (AID 1117346)
Conditions: DLD-1 viability, CellTiter-Glo luminescence; at 20 µM (top of the series)
Non-standard residues stand in square brackets, D forms with d. Residues, ends and D or L forms follow the SMILES beside them. pGlu = O=C1CC[C@@H](C(=O)O)N1
The following compounds are shown together with reported viability decrease (inhibition) values.

Compound	viability decrease (inhibition) / %
COc1ccc2cc(Br)ccc2c1	-6
Clc1ccc2c(c1)Nc1ccccc1S2	17.5
CCOc1c(N2CCOCC2)cnn(C)c1=O	-14.1
O=[N+]([O-])c1ccc(/C=N\O)o1	4.47
C[C@H]1C[C@@H]2[C@H]([C@@H](O)C[C@@]3(C)[C@H]2CC[C@]3(O)C(=O)CO)[C@@]2(C)C=CC(=O)C=C12	-5
CCOC(=O)NNc1ccc(N(CC)CC(C)O)nn1 (centres undefined)	1
N[C@@H]1CONC1=O	-14.1
CCCCCCNC(=O)n1cc(F)c(=O)[nH]c1=O	30.3
COc1cc2c(cc1OC)C(=O)CC2	14.9
CN1CC(O)c2cc(N=NC(N)=O)c(O)cc21 (centres undefined)	2.4
CCN(CC)CC(=O)Nc1c(C)cccc1C	0.45
C=C(C)C(=O)OCC(O)CO (centres undefined)	20.3
CCNC(=O)[C@@H]1CCCN1C(=O)[C@H](CCCN=C(N)N)NC(=O)[C@H](CC(C)C)NC(=O)CNC(=O)[C@H](Cc1ccc(O)cc1)NC(=O)[C@H](CO)NC(=O)[C@H](Cc1c[nH]c2ccccc12)NC(=O)[C@H](Cc1cnc[nH]1)NC(=O)[C@@H]1CCC(=O)N1 ([pGlu]HWSYGLRP-NHEt)	29.7
CC(=O)CCC(=O)O	-8.6

---

The following compounds are shown together with reported inhibition values.
Protocol description: LFS_MB_2R medulloblastoma cell growth inhibition, synergistic combos for chromothripsis tumors, cisplatin combos (AID 1671457);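 also: cells exposed to compound for four days before readout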
Conditions: LFS_MB_2R medulloblastoma cells, measured here: combination with cisplatin, at 0.5 µM, stronger effect = higher value
Measured metric: inhibition (%)

In [3]: df
Out[3]:
                                   compound  quantitative_result
0  CCn1cc(C(=O)O)c(=O)c2cc(F)c(N3CCNCC3)cc21                -13.2
1                   O=c1[nH]cc(F)c(=O)[nH]1                -7.48
2  CCN(CC)CCCC(C)Nc1c2ccc(Cl)cc2nc2ccc(OC)cc12 (centres undefined)                   15
3  O=C1c2c(O)ccc(O)c2C(=O)c2c(NCCNCCO)ccc(NCCNCCO)c21                 20.8

---

The following compounds are shown together with reported viability decrease (inhibition) values.
Protocol description: decreased DLD-1 cellular survival, CellTiter-Glo luminescent readout, NPC compound collection, primary HTS (AID 1117346)
Conditions: DLD-1 viability, CellTiter-Glo luminescence; at 20 µM (top of the series)
Measured metric: viability decrease (inhibition) (%)

>>> df
                                   compound  quantitative_result
0  O=C1C(c2[nH]c3ccc(S(=O)(=O)O)cc3c2O)=Nc2ccc(S(=O)(=O)O)cc21                    7
1  O=C(C1CCCCC1)N1CC(=O)N2CCCc3ccccc3C2C1 (centres undefined)                 -3.1
2  CCCCC[C@H](O)C=C[C@H]1[C@H](O)CC(=O)[C@H]1CC=CCCCC(=O)O                -48.6
3  COC(=O)C1=C(C)NC(C)=C(C(=O)OCCc2ccc(N3CCN(C(c4ccccc4)c4ccccc4)CC3)cc2)C1c1cccc([N+](=O)[O-])c1 (centres undefined)                 -1.2
4  O[C@@H](c1cc(C(F)(F)F)nc2c(C(F)(F)F)cccc12)[C@H]1CCCCN1                  101
5          Cc1onc(-c2c(Cl)cccc2Cl)c1C(=O)Cl                 -2.5
6    C/C(=C1\CCOC(=O)S1)N(C=O)Cc1cnc(C)nc1N                  1.5
7  C#C[C@]1(O)CC[C@H]2[C@@H]3CCC4=CC(=O)CC[C@@H]4[C@H]3CC[C@@]21CC                -24.6
8  CC(=O)CC/C=C(\C)CC/C=C(\C)CC/C=C(\C)CCC=C(C)C                 0.15

---

Protocol description: survival rescue of mitochondrial mutant cells in low glucose, primary screen, MELAS cybrids, Rieske KO mouse fibroblasts, CellTiter-Glo (AID 1508586);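 also: z relative to plate mean and SD of compound and empty wells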
Conditions: Rieske KO mouse fibroblast survival, CellTiter-Glo 72 h
Quick rule for you: z-score under 0.0008 gets Y, anything else gets N.

In [3]: df
Out[3]:
                                    molecule  assigned_class
 0         COc1ccc(Nc2ncc(-c3ccccc3)o2)cc1OC               N
 1  CC1=C(C(=O)Nc2ccc3[nH]ncc3c2)C(c2ccc(F)cc2)N=C(c2ccc(C(F)(F)F)nc2)N1 (configuration not stated)               Y
 2  COc1c(C(N)=O)cc(-c2ccc(Cl)cc2)cc1-c1ccc(S(N)(=O)=O)cc1               N
 3  Cc1nn(C)c2cc(N(C)c3ccnc(Nc4cccc(S(N)(=O)=O)c4)n3)ccc12               N
 4  Cc1c2ccc(N(C)c3ccnc(Nc4cccc(S(N)(=O)=O)c4)n3)cc2nn1C               Y
 5  NCc1ccc(-c2nc(-c3ccc(Cl)c(O)c3)c(-c3ccncc3)[nH]2)cc1               Y
 6  CCn1c(-c2nonc2N)nc2c(C#CC(C)(C)O)nc(OC[C@@H](N)c3ccccc3)cc21               N
 7        O=C1Nc2ccccc2/C1=C1\CCc2cc(O)ccc21               Y
 8  CCn1cc(-c2ccnc3[nH]ccc23)c(-c2cccc(NC(=O)Nc3ccc(OCc4ccccc4)cc3)c2)n1               N
 9  O=C(O)c1ccc(Oc2nccc(-c3c(-c4ccc(F)cc4)ncn3C3CCNCC3)n2)cc1               Y
10    Cc1ccc(O)cc1Nc1ccnc2cc(-c3ccccn3)ccc12               N
11  Cc1ccc(NC(=O)c2ccnc(N3CCCC3)c2)cc1-c1ccc(C(=O)NCC2CC2)cc1               Y
12      Cc1cc(O)cc(C)c1/C=C/c1cncc(C(N)=O)c1               Y
13        Fc1ccc(-c2nn3ccccc3c2-c2ccncc2)cc1               Y
14      CNC(=O)c1cncc(/C=C/c2c(Cl)cccc2Cl)c1               N
15                   CC[N+](C)(C)c1cccc(O)c1               N
16     NC(=O)c1cc(-c2ccncc2)cc(-c2ccccc2)c1N               Y
17  COc1ccc(-c2oc3ncnc(N)c3c2-c2ccc(NC(=O)Nc3cc(C(F)(F)F)ccc3F)cc2)cc1               Y
18  CS(=O)(=O)Nc1ccc(-c2cc(-c3ccccc3)cc(C(N)=O)c2N)cc1               N
19  Cc1ccc(NC(=O)c2ccnc(N3CCOCC3)c2)cc1-c1ccc(C(=O)NCC2CC2)cc1               Y
20                           NCC(=O)CCC(=O)O               N

---

The following compounds are shown together with reported liver cell % of control values.
Protocol description: kinase inhibitors against Plasmodium liver-stage infection, cell-based, known kinase inhibitor set, luminescence, hepatoma host viability (AID 624392);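 also: infected cells incubated roughly two days before readout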
Conditions: Plasmodium liver stage in hepatoma cells, luciferase luminescence, concentration not given here; measured here: host liver cell viability
Measured metric: liver cell % of control (%)

>>> print(df.to_string())
                               entry_smiles  quantitative_result
0  COc1ccc(-c2ccc3c(NC(=O)C4CC4)n[nH]c3n2)cc1                  119
1   O=C1NC(=NCCc2ccccn2)SC1=Cc1ccc2ncccc2c1                  170
2  Nc1c(C(=O)c2ccc(CCCN3CCOCC3)cc2)cnn1-c1ccc(F)cc1                  119
3  CS(=O)(=O)CCNCc1nc(-c2ccc3ncnc(Nc4ccc(F)c(Cl)c4)c3c2)cs1                  103
